system: Plasmodium berghei; test: Screen against P. berghei liver stage (PbLuc), transformed with Luciferase, at 10uM; format: functional, HepG2; settings: tested at 10 uM
The campaign covered roughly 69,000 compounds. About 8,600 (12%) showed an effect of 50% or more. For the sample, strong results were picked, then their nearest neighbours and some compounds at random.
Answer each item with its documented INHIBITION.
One number for each entry, in %.

CC(C)c1nn(C)c(Cl)c1CNCC(O)c1cccc(F)c1 (centres undefined) | 42

Quick request: INHIBITION for each listed item, please.
1. CCc1ccc2c(c1)C(CCNC(=O)c1sccc1C)C(=O)N2 (centres undefined)
2. Cn1c(NCC(O)c2ccc(Cl)cc2)c(C#N)c(=O)n(C)c1=O (centres undefined)
3. CCc1ccc2c(c1)C(CCNC(=O)CCc1ccsc1)C(=O)N2 (centres undefined)
4. CC(C)NC(=O)N1CCc2onc(C(=O)Nc3cccnc3)c2C1
5. c1cncc(CN2CCC(c3ccnc4nccn34)C2)c1 (centres undefined)

[61.9, 19.4, 26.7, -11, 19.99]

Quick request: INHIBITION for each listed item, please.
1. CC(=O)N1CC(c2ccnc(Nc3nccs3)n2)C1
2. CC(C)(C)n1ncc(NCC(O)c2ccccc2C(F)(F)F)c(Cl)c1=O (centres undefined)
3. Oc1ccc(Cl)cc1CNCc1ccccc1C(F)(F)F
4. COCC[C@]1(O)CCN(C(=O)C2CCN(C3CCCC3)CC2)C[C@H]1C
5. CNC(=O)c1sc2ccccc2c1C1CCN(c2cc(C)nc(C)n2)C1 (centres undefined)
6. CCN1CCN(C(=O)Cn2ncc3c2c(C)nn3C(C)C)CC1

[12.6, 82.2, 16.6, 9.63, 74.9, 15.9]

---

test system: Plasmodium berghei; assay: Screen against P. berghei liver stage (PbLuc), transformed with Luciferase, at 10uM; assay type: functional, HepG2; conditions: tested at 10 uM
Hit rate of the full screen: of about 69,000 compounds, about 8,600 (12%) showed an effect of 50% or more. Shown is part of a subset that was picked to be rich in strong results.
Answer each item with its documented INHIBITION.
Dear colleague, please send the value followed by its unit.

Examples from the recorded data:
CC(c1cccc(-c2nccn2CCc2ccccn2)c1)N(C)C (stereo unspecified) | 36.5%
CC1(C)CC(NC(=O)c2cnn(-c3ccccc3F)c2N)CC(C)(C)N1 | -33%
O=C(c1cc(C2CC2)[nH]n1)N1CCN(Cc2ccccc2)CC1 | -26.6%

Quick request: INHIBITION for each listed item, please.
1. O=C(c1cc(C2CC2)[nH]n1)N1CCN(Cc2ccc(Cl)cc2)CC1
2. COCCNC(=O)C[C@@H]1COC[C@H]2CN(Cc3cccnc3)C[C@@H]12
3. Cc1ccc(S(=O)(=O)n2ccn(C(=O)CC(C)C)c2=O)cc1
4. O=C(C[C@@H]1COC[C@H]2CN(CC3CC3)C[C@@H]12)NCc1cccnc1
5. CC(=O)NCCn1ccnc1-c1cccc(C(C)N(C)C)c1 (stereo unspecified)
6. Cc1cnn(CC2CCCN2Cc2cc(C)no2)c1 (stereo unspecified)
7. CCOc1ccccc1CNCC1CCN(CC(C)O)CC1 (stereo unspecified)
8. Cc1ccc(C2CCCN2S(=O)(=O)N(C)Cc2nccn2C)o1 (stereo unspecified)

74.7%
40.5%
40%
53.4%
30.3%
22.265%
28.7%
40.8%

---

system: Plasmodium berghei; experiment: Screen against P. berghei liver stage (PbLuc), transformed with Luciferase, at 10uM; format: functional, HepG2; conditions: tested at 10 uM
About 8,600 (12%) of roughly 69,000 compounds showed an effect of 50% or more. The entries come from a sample that favours strong results as a whole.
Mark not fulfilled for INHIBITION values under 30%, and fulfilled for everything at or above.

// below: answered molecules
CCCc1nc(C)c(C(=O)Nc2cccc(C)n2)s1 | not fulfilled
c1ccc2oc(CCCN3CCCCC3Cn3cncn3)nc2c1 (stereo unspecified) | not fulfilled

Identify whether the reported INHIBITION of the following molecule is 30% or greater: Cc1c(-c2cc(C(F)(F)F)nc(N3CCC(N)CC3)n2)cnn1C
fulfilled

Identify whether the reported INHIBITION of the following molecule is 30% or greater: c1ccc2oc(CN3CCCCC3Cn3cncn3)nc2c1 (stereo unspecified)
fulfilled

---

test system: Plasmodium berghei; test: Screen against P. berghei liver stage (PbLuc), transformed with Luciferase, at 10uM; assay type: functional, HepG2; settings: tested at 10 uM
The campaign covered roughly 69,000 compounds. About 8,600 (12%) showed an effect of 50% or more. Only a selection was taken, and strong results are over-represented in it overall.
Answer each item with its documented INHIBITION.
Numbers only, in %.

Cc1nc(NCC(O)CN2CCCCCC2)c2c(C)nn(C)c2n1 (stereo not drawn) | -30.3

Quick request: INHIBITION for each listed item, please.
1. CC(C)(C)C1CC(=O)Nc2c1cnn2Cc1ccco1 (stereo not drawn)
2. CN(C)c1ccc(C2CC(=O)Nc3c2cnn3Cc2ccco2)cc1 (stereo not drawn)
3. CC(=O)N1CC2(CCN(c3ccc4ccccc4n3)CC2)CC1C(=O)O (stereo not drawn)
4. CC(=O)N1Cc2ccnn2CC(C(=O)NCc2cccnc2)C1 (stereo not drawn)
5. Cc1noc(C2CCN(C(=O)CCCNc3ncccn3)CC2)n1

1. -21.7
2. 1.45
3. 44
4. 46.6
5. 18.4

Quick request: INHIBITION for each listed item, please.
1. Cc1noc(C)c1CN1Cc2ccnn2CC(C(=O)NCC2CC2)C1 (stereo not drawn)
2. CCn1nc(C)c(C(C)Nc2cc(C3CCNCC3)nc(C)n2)c1C (stereo not drawn)
3. COc1ccnc(N2CCCN(c3nc(C4CC4)ns3)CC2)n1
4. O=C1CC(c2ccc(C(=O)O)cc2)c2cnn(Cc3ccco3)c2N1 (stereo not drawn)
5. Fc1ccc(CN2CCO[C@H]3[C@H](OCC4CCCC4)CC[C@@H]32)cc1

1: 85.8; 2: -46.8; 3: 77.6; 4: -8.04; 5: 66.8

Quick request: INHIBITION for each listed item, please.
1. CCCc1n[nH]c(C2CN(CCc3cccs3)CCO2)n1 (stereo not drawn)
2. Fc1ccc(CN2CCO[C@H]3[C@H](OCCN4CCCC4)CC[C@@H]32)cc1
3. CS(=O)(=O)N1Cc2ccnn2CC(C(=O)NCc2cccnc2)C1 (stereo not drawn)

1. -23.9
2. 15.1
3. 77.4

---

Answer each item with its documented INHIBITION.
tested on: Plasmodium berghei; experiment: Screen against P. berghei liver stage (PbLuc), transformed with Luciferase, at 10uM; assay type: functional, HepG2; settings: tested at 10 uM
Hit rate of the full screen: of about 69,000 compounds, about 8,600 (12%) showed an effect of 50% or more. This is one part of a sample in which strong results are shown more often than they occur.
Give bare numbers, in %.

Quick request: INHIBITION for each listed item, please.
1. CN(C)S(=O)(=O)N1CCC2(COCc3cnc(NCC4CC4)nc32)C1 (stereo unspecified)
2. c1ccc(CN2CCC3(COCc4cnc(NCC5CC5)nc43)C2)cc1 (stereo unspecified)
3. Cc1nc(NCC2CC2)nc2c1COCC21CCN(C(=O)C(C)(C)C)C1 (stereo unspecified)
4. c1cc(N2CCC3(COCc4cnc(NCC5CC5)nc43)C2)ncn1 (stereo unspecified)
5. CC(=O)c1cn(CCC(=O)N[C@@H](CC(C)C)C(=O)O)c2ccccc12
6. CCOC(=O)COC1CCN(C(C)=O)CC(=O)N(C)c2ccccc21 (stereo unspecified)

62.8
43.9
49.7
31.7
11.9
22.2

Quick request: INHIBITION for each listed item, please.
1. CN(Cc1nc(Cc2cccc(C(F)(F)F)c2)no1)C(C1CC1)C1CC1
2. CCN1CCC2(COCc3cnc(NCC4CC4)nc32)C1 (stereo unspecified)
3. Fc1cnc(N2CCC3(COCc4cnc(NCC5CC5)nc43)C2)nc1 (stereo unspecified)
4. Cc1nc(NCC2CC2)nc2c1COCC21CCN(C)C1 (stereo unspecified)
5. O=S(=O)(C1CC1)N1CCC2(COCc3cnc(NCC4CC4)nc32)C1 (stereo unspecified)

[27.6, 13.5, -53.2, 31.3, 57.4]

---

test system: Plasmodium berghei; test: Screen against P. berghei liver stage (PbLuc), transformed with Luciferase, at 10uM; assay type: functional, HepG2; conditions: tested at 10 uM
Out of some 69,000 compounds screened, about 8,600 (12%) showed an effect of 50% or more. The list comes from a sample in which strong results are over-represented; it also holds close analogues and randomly drawn compounds.
Recorded endpoint: INHIBITION (%)
Answers are plain numbers, in %.

Examples from the recorded data:
Cn1ccnc1-c1nc(NC2CCCC2)ncc1-c1cccc(F)c1 | 63.8
Nc1nnc(SCC(=O)NCC(O)c2ccccc2)s1 (configuration not stated) | -17.2
CCOCCCNc1ncc(-c2cccc(F)c2)c(-c2nccn2C)n1 | 8.12
COCC1c2nnn(CC3CC3)c2CCN1Cc1ccncc1 (configuration not stated) | 4.68
Cc1ccccc1C(CNC(=O)CSc1nnc(N)s1)N(C)C (configuration not stated) | 54.7
Cn1ccnc1CN1CCOC(C)(C(=O)N2CCOCC2)C1 (configuration not stated) | 35.2
O=C(NCCNC1CCN(c2nccs2)CC1)c1cccs1 | 55.1
COCCNc1ncc(-c2cccc(F)c2)c(-c2nccn2C)n1 | 25.8
Cc1nnc(SCC(=O)NCC(c2ccccc2Cl)N(C)C)s1 (configuration not stated) | -18.5
O=C(NCCNC1CCCC1)c1cccs1 | -0.902

Quick request: INHIBITION for each listed item, please.
1. Cc1nc(C)n(CC2CCCCN2CC(=O)NC(C2CC2)C2CC2)n1 (configuration not stated)
2. CC1CCCN(c2nccn3c(=O)[nH]nc23)C1 (configuration not stated)

1: -24.2; 2: 17.6

Sourced from ChEMBL document CHEMBL4513216
